Kindly supply the reported AC50 values for the records listed here.
Target sequence: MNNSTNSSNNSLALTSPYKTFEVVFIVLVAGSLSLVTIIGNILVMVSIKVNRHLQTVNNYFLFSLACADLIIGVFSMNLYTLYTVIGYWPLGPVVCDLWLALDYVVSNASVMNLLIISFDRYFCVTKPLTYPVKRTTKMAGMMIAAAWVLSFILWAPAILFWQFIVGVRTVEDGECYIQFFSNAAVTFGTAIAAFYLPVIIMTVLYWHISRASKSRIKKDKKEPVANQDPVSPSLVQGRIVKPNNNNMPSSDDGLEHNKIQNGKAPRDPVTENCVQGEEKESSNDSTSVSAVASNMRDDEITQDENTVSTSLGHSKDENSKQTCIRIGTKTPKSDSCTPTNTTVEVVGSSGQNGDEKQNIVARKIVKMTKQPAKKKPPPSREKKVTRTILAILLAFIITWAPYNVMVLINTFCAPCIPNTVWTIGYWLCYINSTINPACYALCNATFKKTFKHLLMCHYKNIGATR

Lab note: CCOC(=O)C1=C(C)NC(C)=C(C(=O)OC)C1c1cccc([N+](=O)[O-])c1 (stereo unspecified) [NITRENDIPINE] gave AC50 of > 10 µM

Lab note: Cc1onc(-c2ccccc2)c1-c1ccc(S(N)(=O)=O)cc1 [VALDECOXIB] gave AC50 of > 10 µM

Lab note: CN(C)CCc1c[nH]c2ccc(Cn3cncn3)cc12 [RIZATRIPTAN] gave AC50 of > 10 µM

Lab note: CN1CCC(=C2c3ccccc3CCc3cccnc32)CC1 [AZATADINE] gave AC50 of 0.064 µM

Lab note: Cn1cnc2c(F)c(Nc3ccc(Br)cc3Cl)c(C(=O)NOCCO)cc21 [SELUMETINIB] gave AC50 of > 10 µM

Lab note: CC(=O)OCC(=O)[C@@]1(O)[C@H](C)C[C@H]2[C@@H]3CCC4=CC(=O)C=C[C@]4(C)[C@@]3(F)[C@@H](O)C[C@@]21C [DEXAMETHASONE ACETATE] gave AC50 of > 10 µM
